protein stability index reference
B1: SETD8 (parent)
chain: GKQAPRKKAQGKTQQNRKLTDFYP

Variants of: B1
experimental-protocol: protein stability index of a GFP-peptide fusion (GPS, HEK-293T) (PSI 1-6); higher = more stable;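 also: lentivirally expressed fusions sorted by FACS into six bins by GFP to DsRed ratio, PSI derived from sequencing read proportions per bin multiplied by bin number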
settings: c terminus: a fixed tail appended

1. Y23T
5.12

Using the record for L19S , state its measured protein stability index.
4.39

Using the record for K2W , state its measured protein stability index.
3.69

Using the record for Q14D , state its measured protein stability index.
3.06

Using the record for Q15C , state its measured protein stability index.
2.15

Using the record for K12C , state its measured protein stability index.
2.19

Using the record for A4F , state its measured protein stability index.
3.05

Using the record for K8L , state its measured protein stability index.
1.99

Using the record for K18E , state its measured protein stability index.
3.2

Using the record for N16P , state its measured protein stability index.
2.45

Using the record for Q14G , state its measured protein stability index.
2.52

Using the record for R6I , state its measured protein stability index.
2.76

Using the record for G1Y , state its measured protein stability index.
3.1

Using the record for A4K , state its measured protein stability index.
3.73

Using the record for K18I , state its measured protein stability index.
4.29

Using the record for P24L , state its measured protein stability index.
3.56

Using the record for T13V , state its measured protein stability index.
3.39

Using the record for T13I , state its measured protein stability index.
3.28

Using the record for P24S , state its measured protein stability index.
3.43

Using the record for G1I , state its measured protein stability index.
2.74
